Give measured IC50 for each item. Keep answers brief.
molecular target: MEK5 (Homo sapiens, UniProt Q13163); construct: made in house; experiment: Kinase competition binding assay, MEK5; settings: Table 1 kinase panel
Sequence (Q13163 whole entry): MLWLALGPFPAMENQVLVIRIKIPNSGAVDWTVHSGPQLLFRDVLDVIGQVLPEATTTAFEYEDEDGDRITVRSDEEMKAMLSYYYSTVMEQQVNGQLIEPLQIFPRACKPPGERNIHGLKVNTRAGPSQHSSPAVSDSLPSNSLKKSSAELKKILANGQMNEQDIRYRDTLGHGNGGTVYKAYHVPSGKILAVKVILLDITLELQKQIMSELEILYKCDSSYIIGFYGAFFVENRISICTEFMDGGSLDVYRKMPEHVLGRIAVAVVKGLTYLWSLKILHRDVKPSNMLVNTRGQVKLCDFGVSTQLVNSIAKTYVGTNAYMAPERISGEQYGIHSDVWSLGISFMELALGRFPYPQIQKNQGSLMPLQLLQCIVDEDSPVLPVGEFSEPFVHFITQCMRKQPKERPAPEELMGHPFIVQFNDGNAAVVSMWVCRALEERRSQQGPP
Reply numerically in nM, unit not repeated.

*Q* Which IC50 value belongs to COc1cc(-c2cc(=O)c3c(O)c(C/C=C(\C)CCC=C(C)C)c(O)cc3o2)ccc1O [FBL-03A] ?
*A* 140

*Q* Which IC50 value belongs to COc1cc(-c2cc(=O)c3c(O)cc(O)c(C/C=C(\C)CCC=C(C)C)c3o2)ccc1O [FBL-03C] ?
*A* 84

###

Target: JAK3 (Homo sapiens, UniProt P52333)
Construct: made in house
Sequence (P52333 1-1124): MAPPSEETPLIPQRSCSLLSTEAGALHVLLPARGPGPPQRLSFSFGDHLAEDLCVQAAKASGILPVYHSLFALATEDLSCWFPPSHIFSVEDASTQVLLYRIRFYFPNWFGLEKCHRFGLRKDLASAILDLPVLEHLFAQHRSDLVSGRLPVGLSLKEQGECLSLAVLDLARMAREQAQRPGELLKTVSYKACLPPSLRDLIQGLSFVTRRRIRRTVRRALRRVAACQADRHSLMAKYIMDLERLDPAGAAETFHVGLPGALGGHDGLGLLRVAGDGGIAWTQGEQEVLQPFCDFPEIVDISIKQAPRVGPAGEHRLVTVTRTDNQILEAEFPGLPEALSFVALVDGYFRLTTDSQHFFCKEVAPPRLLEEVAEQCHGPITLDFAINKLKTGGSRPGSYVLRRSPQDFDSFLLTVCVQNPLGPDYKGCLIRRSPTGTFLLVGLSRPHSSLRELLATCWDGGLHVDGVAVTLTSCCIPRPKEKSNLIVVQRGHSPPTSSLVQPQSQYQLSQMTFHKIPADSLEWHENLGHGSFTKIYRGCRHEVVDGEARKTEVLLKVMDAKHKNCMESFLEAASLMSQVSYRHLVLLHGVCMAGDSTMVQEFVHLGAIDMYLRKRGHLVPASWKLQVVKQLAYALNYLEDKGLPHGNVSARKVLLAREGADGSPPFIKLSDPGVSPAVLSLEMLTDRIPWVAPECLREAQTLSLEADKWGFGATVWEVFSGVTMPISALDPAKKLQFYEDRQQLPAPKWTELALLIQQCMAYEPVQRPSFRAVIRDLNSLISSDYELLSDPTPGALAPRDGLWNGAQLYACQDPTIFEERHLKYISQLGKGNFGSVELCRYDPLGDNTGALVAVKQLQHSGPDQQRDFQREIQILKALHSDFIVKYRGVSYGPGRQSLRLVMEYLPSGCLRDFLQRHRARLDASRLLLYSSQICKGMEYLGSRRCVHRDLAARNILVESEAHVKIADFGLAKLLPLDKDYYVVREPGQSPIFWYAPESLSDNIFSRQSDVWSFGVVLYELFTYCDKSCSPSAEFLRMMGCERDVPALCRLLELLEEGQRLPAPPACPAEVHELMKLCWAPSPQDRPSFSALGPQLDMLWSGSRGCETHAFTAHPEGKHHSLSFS
Test: Kinase competition binding assay, JAK3
Settings: Table 1 kinase panel
Give measured IC50 for each item. Keep answers brief.

*Q* Write down the reported IC50 of COc1ccc(-c2cc(=O)c3c(O)c(C/C=C(\C)CCC=C(C)C)c(O)cc3o2)cc1OC [FBL-03D] , test system: JAK3 (Homo sapiens, UniProt P52333).
*A* > 30000 nM

*Q* Write down the reported IC50 of COc1cc(-c2cc(=O)c3c(O)cc(O)c(CC=C(C)C)c3o2)ccc1O [FBL-03G] , test system: JAK3 (Homo sapiens, UniProt P52333).
*A* > 20000 nM

*Q* Write down the reported IC50 of COc1cc(-c2cc(=O)c3c(O)c(CC=C(C)C)c(O)cc3o2)ccc1O [FBL-03B] , test system: JAK3 (Homo sapiens, UniProt P52333).
*A* > 1000 nM

*Q* Write down the reported IC50 of COc1cc(-c2cc(=O)c3c(O)c(C/C=C(\C)CCC=C(C)C)c(O)cc3o2)ccc1O [FBL-03A] , test system: JAK3 (Homo sapiens, UniProt P52333).
*A* > 20000 nM

*Q* Write down the reported IC50 of COc1cc(-c2cc(=O)c3c(O)cc(O)c(C/C=C(\C)CCC=C(C)C)c3o2)ccc1O [FBL-03C] , test system: JAK3 (Homo sapiens, UniProt P52333).
*A* 780 nM
